Field: pIC50. Provide a value for each of the compounds that follow.
# Assay method text: Nitric oxide scavenging activity by naphthylethylenediamine dihydrochloride based Griesse-Ilosavay method
Scale for pIC50: -log10 of concentration given in mol/L; no unit attached.

[in] Which pIC50 is listed for Cc1ccc(C(C2=C(O)CC(C)(C)CC2=O)c2c(O)[nH]c(=O)[nH]c2=O)cc1 (stereo not drawn) ?
[out] 3.36

[in] // repeat for Cc1cccc(C(c2c(O)n(C)c(=O)n(C)c2=O)c2c(O)n(C)c(=O)n(C)c2=O)c1 and report
[out] 3.76

[in] // repeat for COc1ccc(C(c2c(O)n(C)c(=O)n(C)c2=O)c2c(O)n(C)c(=O)n(C)c2=O)cc1 and report
[out] 3.63

[in] // repeat for Cn1c(O)c(C(C2=C(O)CC(C)(C)CC2=O)c2ccc(C=O)cc2)c(=O)n(C)c1=O (stereo not drawn) and report
[out] 3.42

[in] // repeat for Cn1c(O)c(C(C2=C(O)CC(C)(C)CC2=O)c2ccc(Cl)cc2Cl)c(=O)n(C)c1=O (stereo not drawn) and report
[out] 3.76

[in] // repeat for Cn1c(O)c(C(c2ccc3ccccc3c2)c2c(O)n(C)c(=O)n(C)c2=O)c(=O)n(C)c1=O and report
[out] 4.10

[in] // repeat for Cn1c(O)c(C(C2=C(O)CC(C)(C)CC2=O)c2ccc([N+](=O)[O-])cc2)c(=O)n(C)c1=O (stereo not drawn) and report
[out] 3.33

[in] // repeat for Cc1ccc(C(c2c(O)[nH]c(=O)[nH]c2=O)c2c(O)[nH]c(=O)[nH]c2=O)cc1 and report
[out] 3.42

[in] // repeat for Cn1c(O)c(C(c2cccc(Br)c2)c2c(O)n(C)c(=O)n(C)c2=O)c(=O)n(C)c1=O and report
[out] 4.15

[in] // repeat for CC1(C)CC(=O)C(C(c2ccc(C=O)cc2)c2c(O)[nH]c(=O)[nH]c2=O)=C(O)C1 (stereo not drawn) and report
[out] 3.36

[in] // repeat for O=Cc1ccc(C(c2c(O)[nH]c(=O)[nH]c2=O)c2c(O)[nH]c(=O)[nH]c2=O)cc1 and report
[out] 3.48

[in] // repeat for COc1ccc(C(c2c(O)[nH]c(=O)[nH]c2=O)c2c(O)[nH]c(=O)[nH]c2=O)cc1 and report
[out] 3.69

[in] // repeat for O=c1[nH]c(O)c(C(c2ccc3ccccc3c2)c2c(O)[nH]c(=O)[nH]c2=O)c(=O)[nH]1 and report
[out] 3.51

[in] // repeat for Cn1c(O)c(C(c2ccc([N+](=O)[O-])cc2)c2c(O)n(C)c(=O)n(C)c2=O)c(=O)n(C)c1=O and report
[out] 4.16

[in] // repeat for Cn1c(O)c(C(c2ccc(O)cc2)c2c(O)n(C)c(=O)n(C)c2=O)c(=O)n(C)c1=O and report
[out] 3.51

[in] // repeat for CC1(C)CC(=O)C(C(c2ccccc2)c2c(O)[nH]c(=O)[nH]c2=O)=C(O)C1 (stereo not drawn) and report
[out] 3.44

[in] // repeat for O=c1[nH]c(O)c(C(c2ccc(Cl)cc2)c2c(O)[nH]c(=O)[nH]c2=O)c(=O)[nH]1 and report
[out] 3.52

[in] // repeat for Cn1c(O)c(C(C2=C(O)CC(C)(C)CC2=O)c2ccccc2)c(=O)n(C)c1=O (stereo not drawn) and report
[out] 3.54

[in] // repeat for CC1(C)CC(=O)C(C(C2=C(O)CC(C)(C)CC2=O)c2ccc([N+](=O)[O-])cc2)=C(O)C1 and report
[out] 3.55

[in] // repeat for Cn1c(O)c(C(c2ccc(Cl)cc2)c2c(O)n(C)c(=O)n(C)c2=O)c(=O)n(C)c1=O and report
[out] 4.12

[in] // repeat for Cn1c(O)c(C(c2ccc(C=O)cc2)c2c(O)n(C)c(=O)n(C)c2=O)c(=O)n(C)c1=O and report
[out] 3.95

[in] // repeat for O=C1O[C@H]([C@@H](O)CO)C(O)=C1O [ASCORBIC ACID] and report
[out] 3.21

[in] // repeat for Cc1ccc(C(c2c(O)n(C)c(=O)n(C)c2=O)c2c(O)n(C)c(=O)n(C)c2=O)cc1 and report
[out] 3.64
